molecular target: Furin (Homo sapiens) (UniProt P09958); test: Furin counterscreen qHTS for Zika virus inhibitors (AID 1347149); conditions: furin enzymatic counterscreen, fluorogenic substrate; series mostly up to 114 µM; note: nearly all actives have a fitted effect of over 70% in size
Sequence (P09958 whole entry, looked up): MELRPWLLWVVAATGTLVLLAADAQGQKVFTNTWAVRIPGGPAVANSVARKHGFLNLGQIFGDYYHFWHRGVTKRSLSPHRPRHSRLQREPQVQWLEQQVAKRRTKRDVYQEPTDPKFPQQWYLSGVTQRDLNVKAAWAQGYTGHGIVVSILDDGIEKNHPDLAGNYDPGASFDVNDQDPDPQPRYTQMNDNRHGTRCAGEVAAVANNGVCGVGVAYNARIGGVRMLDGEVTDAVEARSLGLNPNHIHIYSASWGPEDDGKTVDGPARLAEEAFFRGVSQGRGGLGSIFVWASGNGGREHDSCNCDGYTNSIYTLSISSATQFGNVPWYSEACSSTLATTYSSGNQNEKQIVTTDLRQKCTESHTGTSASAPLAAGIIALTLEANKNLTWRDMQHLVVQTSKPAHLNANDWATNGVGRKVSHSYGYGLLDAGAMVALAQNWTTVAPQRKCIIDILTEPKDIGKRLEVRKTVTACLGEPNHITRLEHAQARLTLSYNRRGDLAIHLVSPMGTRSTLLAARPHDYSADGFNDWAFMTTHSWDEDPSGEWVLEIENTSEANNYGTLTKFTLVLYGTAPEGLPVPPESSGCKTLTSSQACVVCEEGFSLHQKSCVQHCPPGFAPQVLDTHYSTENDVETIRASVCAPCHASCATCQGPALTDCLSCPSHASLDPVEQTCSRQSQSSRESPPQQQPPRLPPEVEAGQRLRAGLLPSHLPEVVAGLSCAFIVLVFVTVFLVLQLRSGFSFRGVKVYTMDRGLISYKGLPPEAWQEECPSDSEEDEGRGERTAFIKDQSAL
Records with an inconclusive call do not appear. The source made the active and inactive calls. Calls come from the whole dose curve; as a rule, active = well fitted inhibition curve with a large enough effect; inconclusive = small, poorly fitted or top-dose-only effect; inactive = no such curve, though single readings can be large or run the other way.
Outcomes you can answer with include only these: active, inactive

1) COc1ccc(S(=O)(=O)c2c(O)c(C)cc(NS(=O)(=O)c3ccc(Cl)cc3)c2C(C)C)cc1	inactive

Turning to the following molecule.
Prompt line: Which result was noted for this molecule in the test: O=C(O)c1ccc(O)c2ncc(N3CCCN(CCc4cccc5ccccc45)CC3)cc12
Response line: active

---

experiment: Primary fluorescence-based thiol-reactive (MSTI) qHTS assay for identification of artifact compounds. (AID 1845221); conditions: MSTI thiol-reactivity probe, 1 h; series mostly up to 53.8 µM; note: nearly all actives have a fitted effect of over 65% in size
Records with an inconclusive call do not appear. The source made the active and inactive calls. Calls follow the shape of the dose curve; as a rule, active = well fitted inhibition curve with a large enough effect; inconclusive = small, poorly fitted or top-dose-only effect; inactive = no such curve, though single readings can be large or run the other way.
Outcomes you can answer with include only these: active, inactive

Example cases with answers are listed next.
1. CNc1ccc([N+](=O)[O-])cc1-n1cnc(-c2ccc(C(F)(F)F)cc2)c1	inactive
2. CC(=O)N1c2ccc(-c3ccc(C(=O)O)cc3)cc2C(Nc2ccc(Cl)cc2)CC1C (stereo not given)	inactive
3. Fc1ccccc1CNCc1ccc(-c2ccnc3[nH]ccc23)cc1	inactive
4. C=C(C(=O)O)C1CC2=C(C)C(=O)CC2C(C)CC1O (stereo not given)	active

Turning to the following compound.
Prompt line: Which result was noted for this compound in the test: C=C1C(=O)O[C@@H]2CC(C)=C([C@@H](C)CCCO)[C@@H](OC(=O)C(C)C)[C@H]12
Response line: active

---

test: qHTS assay for small molecule disruptors of mitochondrial membrane potential screened against the NCATS CANVASS Library (AID 1347389); settings: HepG2 mitochondrial membrane potential, m-MPI red/green ratio, 1.5 h; series mostly up to 46.1 µM; note: nearly all actives have a fitted effect of over 60% in size
Inconclusive results are not listed. Active and inactive are the calls of the source. The call rests on the fitted dose curve; in most records, active means well fitted inhibition curve with a large enough effect; inconclusive means small, poorly fitted or top-dose-only effect; inactive means flat fitted curve, though single readings scatter. Numbered stars: 1 amine (or outer) side, 2 acyl side, 3 side chain; on linkers, the order of the positions; unused ones are H or OH. Square brackets hold non-standard residues; d marks the D form. Peptide text beside a SMILES is read from it. ξ: configuration not given here. X4 = O=C(C1CC2(c3ccc(O)cc3)c3ccccc3NC2N1[*:1])[*:2]; ξW = NC(Cc1c[nH]c2ccccc12)C(=O)O; ξY = NC(Cc1ccc(O)cc1)C(=O)O
Outcomes you can answer with include only these: active, inactive

Example cases with answers are listed next.
1. CO[C@@H]1C[C@@H](C[C@H]2CC[C@H](C)[C@H]([C@@H](C)C(=O)O)O2)O[C@]2(O[C@](C)([C@H]3CC[C@@](C)([C@@H]4O[C@@H]([C@H]5O[C@](C)(O)[C@H](C)C[C@@H]5C)C[C@@H]4C)O3)C[C@H]2C)[C@@H]1C	active
2. C[C@@H]1C(=O)[C@]23CC[C@H]1C[C@]21O[C@H]2C(C)(C)C=CC(=O)[C@@]23COC1=O	inactive
3. CC12C[C@]3(O)O[C@@H](O1)[C@]1(COC(=O)c4ccccc4)[C@@H]3CC21OC1OC(CO)C(O)C(O)C1O (some centres not stated)	inactive
4. C1=C2CCCN[C@@H]2[C@@H]2CCN3CCCC[C@@H]3[C@H](C1)C2	inactive
5. CC[C@H](C)[C@H](NC(=O)C(Cc1ccc(O)cc1)NC(=O)C(Cc1c[nH]c2ccccc12)NC(=O)[C@H](C)N)C(=O)N1C(C(=O)NC(Cc2ccc(O)cc2)C(=O)O)CC2(c3ccc(O)cc3)c3ccccc3NC12 (some centres not stated) (H-A[ξW][ξY]I[X4][ξY]-OH)	inactive

Prompt line: Which result was noted for this compound in the test: Oc1ccc(/C=C2/c3cc(O)cc(O)c3C(c3ccc(O)cc3)[C@H]2c2cc(O)cc(O)c2)cc1 (some centres not stated)
Response line: inactive

Prompt line: Which result was noted for this compound in the test: C[C@@H]1O[C@H](c2c(O)cc(O)c3c(=O)cc(-c4ccc(O)cc4)oc23)[C@H](O)[C@H](O)[C@H]1O
Response line: inactive
